- System: CDKL2;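 also: KINOMEscan kinase panel screen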
- assay_context: concentration: 1 μM, replicates: in singlicate; n = 1
measured_parameter: %Inh (%)
Give a bare numeral; the unit % is implied.

// query Please report the recorded %Inh for N#Cc1cnc2cc(-c3cnc(CNCCN4CCOCC4)s3)ccc2c1Nc1ccc(Oc2ccccc2)cc1 .
// result 61

// query Please report the recorded %Inh for Cl.Cl.NCC(NC(=O)c1cc(-c2cccnc2)c(-c2ccnc3[nH]ccc23)s1)c1ccccc1 (stereo not drawn) .
// result 23

// query Please report the recorded %Inh for CN(c1ccc(NC(=O)N2CCN(CCCN3CCOCC3)CC2)cc1)c1ccnc(Nc2ccc(CS(C)(=O)=O)cc2)n1.Cl .
// result 9
